Measured values drawn from paper PMC10254530 for this set.

Below, each of the molecules is paired with its reported IC50 value.
# Test system: L-02 cells
# Method: CCK-8 cytotoxicity assay, normal liver L-02
# Format: cell-based
# Details: Homo sapiens, L02; CCK-8, 48 h, normal liver cells, mean ± SD of three experiments; read-out: IC50 L-02
Give the value, in units of µM, as a plain number.

>>> readout_value("C[C@H]1CCC/C=C/[C@@H]2C[C@H](O)C[C@H]2[C@H](OC(=O)CCC(=O)Oc2ccc(OC(=O)c3ccc(N=C=S)cc3)cc2)/C=C/C(=O)O1 [Compound 9f]")
25.1

-- ask Given the entry C[C@H]1CCC/C=C/[C@@H]2C[C@H](O)C[C@H]2[C@H](OC(=O)CCC(=O)OCCCCCCOC(=O)c2ccc(N=C=S)cc2)/C=C/C(=O)O1 [Compound 9e] , report its measured IC50.
-- reply 7.87

-- ask # repeat for C[C@H]1CCC/C=C/[C@@H]2C[C@H](OC(=O)c3ccc(N=C=S)cc3)C[C@H]2[C@H](O)/C=C/C(=O)O1 [Compound 7]
-- reply 8.6

====

Here, each record is paired with measured log10(IC50) data.
# Test system: A549 cells
# Method: CCK-8 antiproliferative assay, A549
# Assay type: cell-based
# Details: Homo sapiens, A549; CCK-8, 48 h, mean ± SD of three experiments; read-out: IC50 A549
# log10 transformed; quantity=IC50; unit=µM

Please review the entries below; each comes with its answer.
>>> readout_value("C[C@H]1CCC/C=C/[C@@H]2C[C@H](O)C[C@H]2[C@H](OC(=O)CCC(=O)Oc2ccc(OC(=O)c3ccc(N=C=S)cc3)cc2)/C=C/C(=O)O1")
1.21
>>> readout_value("C[C@H]1CCC/C=C/[C@@H]2C[C@H](O)C[C@H]2[C@H](OC(=O)/C=C\\C(=O)OCC#CCOC(=O)c2ccc(N=C=S)cc2)/C=C/C(=O)O1")
1.01
>>> readout_value("C[C@H]1CCC/C=C/[C@@H]2C[C@H](O)C[C@H]2[C@H](OC(=O)CCC(=O)OCCCCOC(=O)c2ccc(N=C=S)cc2)/C=C/C(=O)O1")
0.45

-- ask Fill in the blank: the reported log10(IC50) of C[C@H]1CCC/C=C/[C@@H]2C[C@H](OC(=O)c3ccc(N=C=S)cc3)C[C@H]2[C@H](O)/C=C/C(=O)O1 is ____.
-- reply 1.31

-- ask Another molecule: C[C@H]1CCC/C=C/[C@@H]2C[C@H](O)C[C@H]2[C@H](OC(=O)CCC(=O)OCCOC(=O)c2ccc(N=C=S)cc2)/C=C/C(=O)O1
-- reply 0.92

-- ask Now consider C[C@H]1CCC/C=C/[C@@H]2C[C@H](O)C[C@H]2[C@H](OC(=O)/C=C\C(=O)OCCOCCOC(=O)c2ccc(N=C=S)cc2)/C=C/C(=O)O1 and answer again.
-- reply 0.66

-- ask What about C[C@H]1CCC/C=C/[C@@H]2C[C@H](O)C[C@H]2[C@H](OC(=O)CCC(=O)OCCOCCOC(=O)c2ccc(N=C=S)cc2)/C=C/C(=O)O1 ?
-- reply 0.45

-- ask Also C[C@H]1CCC/C=C/[C@@H]2C[C@H](O)C[C@H]2[C@H](OC(=O)/C=C\C(=O)OCCOC(=O)c2ccc(N=C=S)cc2)/C=C/C(=O)O1 ?
-- reply 1.02

-- ask What about C[C@H]1CCC/C=C/[C@@H]2C[C@H](O)C[C@H]2[C@H](OC(=O)CCC(=O)OCCCCCCOC(=O)c2ccc(N=C=S)cc2)/C=C/C(=O)O1 ?
-- reply 0.41

-- ask Now this one: C[C@H]1CCC/C=C/[C@@H]2C[C@H](O)C[C@H]2[C@H](OC(=O)/C=C\C(=O)OCCCCOC(=O)c2ccc(N=C=S)cc2)/C=C/C(=O)O1
-- reply 0.93

-- ask Okay, and C[C@H]1CCC/C=C/[C@@H]2C[C@H](O)C[C@H]2[C@H](O)/C=C/C(=O)O1 ?
-- reply -1.25

-- ask Moving on to C[C@H]1CCC/C=C/[C@@H]2C[C@H](O)C[C@H]2[C@H](OC(=O)/C=C\C(=O)OCCCCCCOC(=O)c2ccc(N=C=S)cc2)/C=C/C(=O)O1
-- reply 0.92

-- ask Now this one: C[C@H]1CCC/C=C/[C@@H]2C[C@H](O)C[C@H]2[C@H](OC(=O)c2ccc(N=C=S)cc2)/C=C/C(=O)O1
-- reply 0.86
